Measured %Inh accompanies every entry in the list below.
- Tested on: CDK2
- test-settings: concentration: 1 μM, replicates: in singlicate; n = 1;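 also: KINOMEscan kinase panel screen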
endpoint: %Inh (%)

1. O=c1cc(N2CCOCC2)nc2n(Cc3ccc(F)c(Cl)c3)ccn12 [GSK2297099] ... 0
2. Cl.NS(=O)(=O)c1cccc(Nc2cc(-c3ccc(F)cc3)n[nH]2)c1 [GW824645] ... 5
3. Cc1cccc(-c2cc(-c3c[nH]nc3-c3ccccn3)ccn2)c1 [GW679395] ... 0
4. CCCC(=O)Nc1n[nH]c2ncc(-c3cccc4ccccc34)cc12 [SB-642057] ... 56
5. COC(=O)c1c(-c2ccccc2)c2cc(C)ccc2c(=O)n1Cc1ccccc1 ... 0
6. O=C(NCc1cccs1)c1cc(C(=O)c2c(Cl)cccc2Cl)c[nH]1 [GW823670] ... 0
7. Cc1c(Cn2c(C)nn3c(=O)cc(N4CCO[C@H](C)C4)nc23)cccc1C(F)(F)F [GSK2373690] ... 0
8. COc1cc2nccc(Nc3cccc(Oc4ccccc4)c3)c2cc1OC.Cl [GW284543] ... 0
9. Cc1nnc(-c2ccc3ncn(-c4ccc(S(C)=O)cc4)c3c2)o1 (stereo not drawn) ... 0
10. CCS(=O)(=O)c1ccc(OC)c(Nc2ncc(-c3ccc(F)cc3)o2)c1.Cl [GW591947] ... 0
11. COc1cc(Nc2ccnc3ccc(C(F)(F)F)cc23)cc(OC)c1OC [GW577382] ... 4
12. Nc1n[nH]c2nnc(-c3ccccc3)c(-c3ccccc3)c12 [GW554060] ... 0
13. COc1ccc(-c2coc3ccc(-c4nnc(SCc5cccc(C#N)c5)o4)cc23)cc1 ... 6
14. COC(=O)c1c(-c2ccccc2)c2cc(Br)ccc2c(=O)n1Cc1ccc(S(C)(=O)=O)cc1 ... 6
15. CN1C(=O)C(Nc2ccccc2)=C(c2ccccc2)C1=O [SB-300079] ... 0
16. COc1cc(Nc2nccc(N3CCC(NC(=O)C4COc5ccccc5O4)C3)n2)cc(OC)c1OC (stereo not drawn) [GSK1379761] ... 0
17. COc1cc(Nc2nccc(N3CCC(NC(=O)C(C)c4ccc(Cl)cc4)C3)n2)cc(OC)c1OC (stereo not drawn) [GSK1379757] ... 0
18. Nc1n[nH]c2ncc(-c3ccccc3)cc12 [SB-517081] ... 0
19. CCC(=O)c1c(-c2ccccc2)c2cc(Cl)ccc2c(=O)n1Cc1cc(S(C)(=O)=O)n(CC(N)=O)n1 ... 0
20. COc1cc2ncn(-c3cc(OCc4ccc(S(C)(=O)=O)cc4)c(C(N)=O)s3)c2cc1OC [GW869979] ... 0
21. CCc1nc(-c2cccc(C)c2)c(-c2ccncc2)s1 ... 0
22. CCC(=O)c1c(-c2ccccc2)c2cc(Cl)ccc2c(=O)n1Cc1ccc(C(=O)O)cc1 ... 0
23. CCn1c(-c2nonc2N)nc2ccccc21 [SB-693162/GW549034] ... 0
24. COc1cc2nccc(Nc3ccc(OCc4ccc(NC(C)=O)cc4)cc3)c2cc1OC.Cl [GW440135] ... 0
25. O=C(Nc1ccc2c(c1)OCO2)NC1CCN(c2ccnc(NCc3ccc(F)cc3)n2)CC1 [GSK1379859] ... 0
26. COc1cc2ncn(-c3cc(OCc4ccncc4)c(C(N)=O)s3)c2cc1OC [GSK336313] ... 0
27. COc1cccc(C2=C(Nc3cccc(C(=O)O)c3)C(=O)NC2=O)c1 [SB-390770] ... 15
28. Cc1cccc(-c2nc(Nc3ccc4c(cnn4C)c3)c3ccccc3n2)n1 [GW876731] ... 6
29. COc1cc2ncn(-c3cc(OCCCc4ccccc4)c(C(N)=O)s3)c2cc1OC [GSK205189] ... 0
30. COc1ccc(-n2cnc3c(N)ncnc32)cc1 [SKF-97236] ... 19
31. CCC(=O)c1c(-c2ccccc2)c2cc(Cl)ccc2c(=O)n1Cc1cc(S(C)(=O)=O)n(CCC(C)(C)O)n1 ... 0
32. COc1cc2ncn(-c3cc(OCc4ccncc4Br)c(C(N)=O)s3)c2cc1OC [GW854278] ... 1
33. COc1ccc(Nc2nccc(N3CCC(NS(=O)(=O)c4ccc(NC(C)=O)cc4)C3)n2)cc1 (stereo not drawn) [GSK1379729] ... 2
34. CN(C)c1cc(-c2ccc3c(N)n[nH]c3c2)nc(N)n1 [GSK2219329] ... 10
35. O=C(Nc1n[nH]c2nc(-c3ccccc3)c(Br)cc12)C1CC1 [SB-708998] ... 0
36. CC(C)(C)c1ccc(C(=O)Nc2cn3cc(-c4ccccc4)ccc3n2)cc1 ... 0

* * *

- System: ERK8
- Construct: gene MAPK15
- test-settings: concentration: 1 μM, replicates: in singlicate; n = 1
endpoint: %Inh (%)

1) COc1ccc(CNC(=O)NC2CCN(c3ccnc(Nc4ccc(F)cc4)n3)C2)cc1 (centres unmarked) ... 0
2) CCCC(=O)Nc1n[nH]c2ncc(-c3cccc4ccccc34)cc12 ... 0
3) Nc1ncnc2c1ncn2-c1cccc(F)c1 ... 0
4) COc1cc(Nc2nccc(N3CCC(NC(=O)C(C)c4ccc(Cl)cc4)C3)n2)cc(OC)c1OC (centres unmarked) ... 0
5) CCC(=O)c1c(-c2ccccc2)c2cc(Cl)ccc2c(=O)n1Cc1cc(S(C)(=O)=O)n(CC(N)=O)n1 ... 0
6) Cc1cc(Nc2nc(-c3cccc(C)n3)nc3ccccc23)ccn1 ... 13
7) CN1C(=O)C(Nc2cc(Cl)c(O)c(Cl)c2)=C(c2ccc(Cl)cc2)C1=O ... 0
8) COc1cc2ncn(-c3cc(OCc4ccncc4Br)c(C(N)=O)s3)c2cc1OC ... 0
9) O=C(Nc1n[nH]c2nc(-c3ccccc3)c(Br)cc12)C1CC1 ... 15
10) CCC(=O)c1c(-c2ccccc2)c2cc(Cl)ccc2c(=O)n1Cc1cc(S(C)(=O)=O)n(CCC(C)(C)O)n1 ... 0
11) Nc1nccc2scc(-c3ccc4c(c3)CCN4C(=O)Cc3ccccc3)c12 ... 0
12) COc1cc2ncn(-c3cc(OCc4ccncc4)c(C(N)=O)s3)c2cc1OC ... 0
13) CCCNC(=O)Nc1ccc(Oc2ncnc3ccn(C)c23)cc1 ... 0
14) COc1cc2nccc(Nc3cccc(Oc4ccccc4)c3)c2cc1OC.Cl ... 13
15) CCn1c(-c2nonc2N)nc2ccccc21 ... 1
16) COc1ccc(-c2coc3ccc(-c4nnc(SCc5cccc(C#N)c5)o4)cc23)cc1 ... 14
17) COc1ccc(-n2cnc3c(N)ncnc32)cc1 ... 40
18) CCn1c(-c2ccoc2)nc2cnccc21 ... 0
19) Cc1ccc(-c2ccc3c(ccc4sc5c(c43)NC[C@@H](C)N=C5N(C)C)n2)cn1 ... 8
20) CCC(=O)c1c(-c2ccccc2)c2cc(Cl)ccc2c(=O)n1Cc1ccc(C(=O)O)cc1 ... 0
21) Cc1cccc(-c2nc(Nc3ccc4c(cnn4C)c3)c3ccccc3n2)n1 ... 0
22) CCc1ccc(-c2ccc3c(c2)-c2nn(C)cc2S(=O)(=O)N3C)cc1 ... 36
23) CN1C(=O)C(Nc2ccccc2)=C(c2ccccc2)C1=O ... 2

* * *

Measured %Inh accompanies every entry in the list below.
- Test system: MYLK
- test-settings: concentration: 1 μM, replicates: in singlicate; n = 1
endpoint: %Inh (%)

1. Nc1n[nH]c2ncc(-c3ccccc3)cc12 [SB-517081] ... 39
2. CCCNC(=O)Nc1ccc(Oc2ncnc3ccn(C)c23)cc1 ... 0
3. CCC(=O)c1c(-c2ccccc2)c2cc(Cl)ccc2c(=O)n1Cc1cc(C(=O)NC2CC2)n(C)n1 ... 0
4. COc1cc2ncn(-c3cc(OCc4ccc(S(C)(=O)=O)cc4)c(C(N)=O)s3)c2cc1OC [GW869979] ... 46
5. CN(C)c1cc(-c2ccc3c(N)n[nH]c3c2)nc(N)n1 [GSK2219329] ... 0
6. Nc1n[nH]c2nnc(-c3ccccc3)c(-c3ccccc3)c12 [GW554060] ... 16
7. Cl.c1ccc(Cn2cnc3cc(Nc4ncnc5ccccc45)ccc32)cc1 [GW272142] ... 1
8. Fc1cccc(CSc2nnc(-c3ccc4c(c3)CCO4)o2)c1 ... 2
9. COc1cc2nccc(Nc3cccc(Oc4ccccc4)c3)c2cc1OC.Cl [GW284543] ... 0

* * *

Measured %Inh accompanies every entry in the list below.
- Tested on: FES
- test-settings: concentration: 1 μM, replicates: in singlicate; n = 1
endpoint: %Inh (%)

1) O=c1cc(N2CCOCC2)nc2n(Cc3ccc(F)c(Cl)c3)ccn12 [GSK2297099] ... 0
2) Cc1nnc(-c2ccc(C)c(-c3ccc(C(=O)O)cc3)c2)o1 [GW608005] ... 0
3) COc1cc(Nc2nccc(N3CCC(NC(=O)C4COc5ccccc5O4)C3)n2)cc(OC)c1OC (stereo not shown) [GSK1379761] ... 0
4) FC(F)(F)c1ccc(-c2ncn(CCCN3CCOCC3)c2-c2ccncc2)cc1 [SB-217780] ... 4
5) Cc1ccc(-c2ccc3c(ccc4sc5c(c43)NC[C@@H](C)N=C5N(C)C)n2)cn1 ... 0
6) COc1ccc(Nc2nccc(N3CCC(NS(=O)(=O)c4ccc(NC(C)=O)cc4)C3)n2)cc1 (stereo not shown) [GSK1379729] ... 5
7) COc1ccc(-c2cc3c(C)nc(N)nc3n([C@H]3CC[C@H](OCCO)CC3)c2=O)cn1 ... 1
